# Target or test system: hERG (KCNH2) (Homo sapiens)
# Procedure text: Inhibition of human ERG channel expressed in HEK293 cells at 1 uM by voltage patch clamp technique
# Type: cell-based
# Experimental setup: HEK293 cells that express hERG
Label criterion met when inhibition at 1 µM is at or above 60%; anything below gets criterion not met.

# count of solved cases: 5
[
  {
    "Compound": "O=C(N[C@@H]1CN(Cc2ccccc2)C[C@H]1C1CCCCC1)C1CCCCC1 (racemic)",
    "Assigned class": "criterion not met"
  },
  {
    "Compound": "C[C@@H](CN1CC[C@@]2(C)c3cccc(O)c3C[C@@H]1C2(C)C)OCc1ccccc1.Cl",
    "Assigned class": "criterion met"
  },
  {
    "Compound": "Cc1cc(OC[C@@H](O)CN2CCN(c3ccc(Cc4ccc(F)cc4)cc3)CC2)c(C)c(C)c1N",
    "Assigned class": "criterion met"
  },
  {
    "Compound": "OC(COc1ccc2c(c1)CCC2)CN1CCC(c2nc3ccccc3[nH]2)CC1 (stereo unspecified)",
    "Assigned class": "criterion met"
  },
  {
    "Compound": "c1ccc(CN2C[C@H](NC3CCCCC3)[C@H](c3ccccc3)C2)cc1",
    "Assigned class": "criterion not met"
  }
]

Challenge: Quick check, inhibition at 1 µM >= 60%? Cl.Cl.c1ccc(CN2C[C@@H](NC3CCCCC3)[C@H](c3ccccc3)C2)cc1 (racemic)
Response given: criterion not met

Challenge: Identify whether the reported inhibition at 1 µM of the following compound is 60% or greater: c1ccc(CN[C@@H]2CN(Cc3ccccc3)C[C@H]2C2CCCCC2)cc1 (racemic)
Response given: criterion met

Challenge: Please tell me: is the compound c1ccc([C@@H]2CN(CC3CCCCC3)C[C@H]2NC2CCCCC2)cc1 (racemic) at or over 60% in terms of inhibition at 1 µM?
Response given: criterion not met

Challenge: API: above_or_equal(metric=inhibition at 1 µM, cutoff=60%) for item c1ccc(CN2C[C@@H](NC3CCCCC3)[C@H](C3CCCCC3)C2)cc1 (racemic)
Response given: criterion not met

Challenge: Assess whether reported inhibition at 1 µM for O=C(N[C@@H]1CN(Cc2ccccc2)C[C@H]1c1ccccc1)C1CCCCC1 (racemic) sits at 60% or higher.
Response given: criterion not met

Challenge: Determine whether this compound has inhibition at 1 µM no lower than 60%: c1ccc(CN[C@@H]2CN(Cc3ccccc3)C[C@H]2c2ccccc2)cc1 (racemic)
Response given: criterion not met

Challenge: Could you please find out whether c1ccc(CN2C[C@@H](Nc3ccccc3)[C@H](c3ccccc3)C2)cc1 (racemic) has inhibition at 1 µM that meets 60% or exceeds it?
Response given: criterion not met

Challenge: Does inhibition at 1 µM meet or surpass 60% for O=C(N[C@@H]1CN(Cc2ccccc2)C[C@H]1c1ccccc1)c1ccccc1 (racemic) ?
Response given: criterion not met

* * *

# Target or test system: hERG (KCNH2) (Homo sapiens, UniProt Q12809)
# Sequence (Q12809 whole entry): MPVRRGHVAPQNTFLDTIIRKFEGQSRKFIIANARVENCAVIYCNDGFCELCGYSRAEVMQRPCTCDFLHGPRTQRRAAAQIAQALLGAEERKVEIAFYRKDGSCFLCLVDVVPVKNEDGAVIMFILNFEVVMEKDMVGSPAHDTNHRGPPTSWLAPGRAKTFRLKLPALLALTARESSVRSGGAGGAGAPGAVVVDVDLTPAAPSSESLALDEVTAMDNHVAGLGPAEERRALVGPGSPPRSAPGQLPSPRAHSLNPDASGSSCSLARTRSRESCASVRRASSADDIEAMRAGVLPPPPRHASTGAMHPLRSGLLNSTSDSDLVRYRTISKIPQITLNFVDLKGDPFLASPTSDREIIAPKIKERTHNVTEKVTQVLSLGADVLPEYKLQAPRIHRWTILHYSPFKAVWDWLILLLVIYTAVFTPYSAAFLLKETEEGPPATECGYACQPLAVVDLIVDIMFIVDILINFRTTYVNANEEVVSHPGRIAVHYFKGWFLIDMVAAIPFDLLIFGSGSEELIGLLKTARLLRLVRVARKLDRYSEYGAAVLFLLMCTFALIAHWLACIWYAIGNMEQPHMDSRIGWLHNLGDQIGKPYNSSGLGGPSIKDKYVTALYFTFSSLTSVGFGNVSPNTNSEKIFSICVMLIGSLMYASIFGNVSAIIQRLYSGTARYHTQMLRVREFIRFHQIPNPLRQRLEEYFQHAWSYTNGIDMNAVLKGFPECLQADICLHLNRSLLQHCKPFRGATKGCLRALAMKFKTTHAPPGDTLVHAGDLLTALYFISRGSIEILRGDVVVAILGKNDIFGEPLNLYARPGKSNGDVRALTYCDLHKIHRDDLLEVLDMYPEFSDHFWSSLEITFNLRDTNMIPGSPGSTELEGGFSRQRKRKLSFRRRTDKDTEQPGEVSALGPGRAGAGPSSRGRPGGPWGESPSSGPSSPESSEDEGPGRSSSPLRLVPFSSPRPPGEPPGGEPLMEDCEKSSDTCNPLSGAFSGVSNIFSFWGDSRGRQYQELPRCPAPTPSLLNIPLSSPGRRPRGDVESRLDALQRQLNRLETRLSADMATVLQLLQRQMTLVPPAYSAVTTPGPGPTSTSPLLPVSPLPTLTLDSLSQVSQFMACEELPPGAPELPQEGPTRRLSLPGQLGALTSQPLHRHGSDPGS
# Procedure text: Inhibition of human ERG channel expressed in HEK293 cells at 1 uM by voltage patch clamp technique
# Assay type: cell-based
# Experimental setup: HEK293 cells that express hERG
Property measured: inhibition at 1 µM (%)
Dear colleague, please return just the value in %, with no unit written.

These solved cases illustrate the format of a correct answer.
[
  {
    "Molecule": "Cc1nc(OCCCCCN2CCCCC2)cc(-c2ccc(F)cc2)n1",
    "Target or test system": "hERG (KCNH2) (Homo sapiens, UniProt Q12809)",
    "Property measured": "inhibition at 1 µM",
    "Value reported": 60
  },
  {
    "Molecule": "c1ccc(CN2C[C@@H](NCC3CCCCC3)[C@H](c3ccccc3)C2)cc1 (racemic)",
    "Target or test system": "hERG (KCNH2) (Homo sapiens, UniProt Q12809)",
    "Property measured": "inhibition at 1 µM",
    "Value reported": 60
  }
]

# context switch: different molecule, same inhibition at 1 µM
Challenge: Return reported inhibition at 1 µM; argument: c1ccc(CN2C[C@@H](NCC3CCCCC3)[C@H](C3CCCCC3)C2)cc1 (racemic)
Response given: 60
